Target Desc: human GLP-1 receptor (human, UniProt P43220 24-463)
Protocol Description: cell-based or functional assay
Where no end group is shown, it is not given here.
Observation Type: GLP-1 receptor activation relative to Val^8-GLP-1 (7-37) OH

Consider the worked cases shown below.
I am curious: what GLP-1 receptor activation relative to Val^8-GLP-1 (7-37) OH value has been reported for HVEGTFTSDYSSFLEGQAAKEFIAWLVKGRG-OH [Val^8-Tyr^16-Phe^19-GLP-1 (7-37) OH] ?
2.8 relative to Val^8-GLP-1 (7-37) OH

I am curious: what GLP-1 receptor activation relative to Val^8-GLP-1 (7-37) OH value has been reported for HVEGTFTSDVSSYLEGQAAKEFIAWLAKGRG-OH [Val^8-Ala^33-GLP-1 (7-37) OH] ?
0.2 relative to Val^8-GLP-1 (7-37) OH

I am curious: what GLP-1 receptor activation relative to Val^8-GLP-1 (7-37) OH value has been reported for HVEGTFTSDVSSYLEGQAAKEFIAWLVEGRG-OH [Val^8-Glu^34-GLP-1 (7-37) OH] ?
0.4 relative to Val^8-GLP-1 (7-37) OH

I am curious: what GLP-1 receptor activation relative to Val^8-GLP-1 (7-37) OH value has been reported for HGEGHFTSDVSSYLEGQAAKEFIAWLVKGRG-OH [Gly^8-His^11-GLP-1 (7-37) OH] ?
0.6 relative to Val^8-GLP-1 (7-37) OH

I am curious: what GLP-1 receptor activation relative to Val^8-GLP-1 (7-37) OH value has been reported for HVEGTFTSDFSSYLEEQAAKEFIAWLVKGRG-OH [Val^8-Phe^16-Glu^22-GLP-1 (7-37) OH] ?
2.3 relative to Val^8-GLP-1 (7-37) OH

***
I am curious: what GLP-1 receptor activation relative to Val^8-GLP-1 (7-37) OH value has been reported for HVEGTFTSDYSSWLEEQAAKEFIAWLVKGRG-OH [Val^8-Tyr^16-Trp^19-Glu^22-GLP-1 (7-37) OH] ?
3.5 relative to Val^8-GLP-1 (7-37) OH

Provenance of the data: patent US20040235726A1
